Biological target: IKKβ (Homo sapiens (Human))
PROPERTY LABEL: Ki (µM)
Give just the number in µM; leave the unit off.

Log: IKKβ (Homo sapiens (Human)), compound `CN(C)Cc1ccc(NC(=O)c2cccc([C@@H]3C[C@H]3C(=O)Nc3ccc4cncc(Cl)c4c3)c2)nc1` , Ki = 1.19

----------
Quick reference: IC50 of the listed items.
Target: IKKβ (Homo sapiens (Human), UniProt O14920)
Sequence (O14920 whole entry, species assumed): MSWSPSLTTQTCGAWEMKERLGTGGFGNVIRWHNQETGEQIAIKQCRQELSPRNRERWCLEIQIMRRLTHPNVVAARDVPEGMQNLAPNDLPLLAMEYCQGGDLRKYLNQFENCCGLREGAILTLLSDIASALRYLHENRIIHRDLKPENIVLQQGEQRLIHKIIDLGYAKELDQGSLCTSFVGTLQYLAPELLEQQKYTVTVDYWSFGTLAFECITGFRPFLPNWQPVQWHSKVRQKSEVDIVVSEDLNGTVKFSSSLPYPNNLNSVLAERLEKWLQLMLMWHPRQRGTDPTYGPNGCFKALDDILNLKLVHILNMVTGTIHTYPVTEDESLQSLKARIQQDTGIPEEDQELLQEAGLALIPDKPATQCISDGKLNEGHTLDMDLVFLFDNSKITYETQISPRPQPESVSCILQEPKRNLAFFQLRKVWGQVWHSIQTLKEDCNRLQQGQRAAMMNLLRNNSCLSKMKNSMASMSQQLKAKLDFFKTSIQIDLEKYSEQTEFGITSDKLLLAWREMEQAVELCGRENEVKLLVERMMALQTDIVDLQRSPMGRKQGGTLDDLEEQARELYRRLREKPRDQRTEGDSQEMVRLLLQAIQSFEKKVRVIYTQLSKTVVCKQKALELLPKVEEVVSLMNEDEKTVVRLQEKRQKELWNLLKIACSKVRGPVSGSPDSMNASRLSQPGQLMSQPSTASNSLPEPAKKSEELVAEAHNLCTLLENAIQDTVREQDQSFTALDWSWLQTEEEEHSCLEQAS
Experiment: IKKβ inhibition
Type: biochemical
Conditions: Table 1
Give me the value, and tack the unit on after it.

Cc1cncc2ccc(NC(=O)[C@@H]3C[C@H]3c3ccc(S(=O)(=O)Nc4ncc(C5CCNCC5)cn4)cc3)cc12 : 1130 nM

Data point: Cc1cncc2ccc(NC(=O)[C@@H]3C[C@H]3c3ccc(S(=O)(=O)NC4CCNC4)cc3)cc12 (some centres unmarked) ; IC50 = 759 nM

Data point: Cc1cncc2ccc(NC(=O)[C@@H]3C[C@H]3c3ccc(S(=O)(=O)NC4CCCNC4)cc3)cc12 (some centres unmarked) ; IC50 = 825 nM

Data point: `Cc1cncc2ccc(NC(=O)[C@@H]3C[C@H]3c3ccc(S(=O)(=O)Nc4nccs4)cc3)cc12` ; IC50 = 5 nM

Data point: O=C(Nc1ccc2cncc(Cl)c2c1)[C@@H]1CC1c1ccc(S(=O)(=O)Nc2cccnc2)cc1 (some centres unmarked) ; IC50 = 381 nM

----------
Molecular target: JAK3 enzyme (Homo sapiens (Human), UniProt P52333)
Sequence (P52333 whole entry, species assumed): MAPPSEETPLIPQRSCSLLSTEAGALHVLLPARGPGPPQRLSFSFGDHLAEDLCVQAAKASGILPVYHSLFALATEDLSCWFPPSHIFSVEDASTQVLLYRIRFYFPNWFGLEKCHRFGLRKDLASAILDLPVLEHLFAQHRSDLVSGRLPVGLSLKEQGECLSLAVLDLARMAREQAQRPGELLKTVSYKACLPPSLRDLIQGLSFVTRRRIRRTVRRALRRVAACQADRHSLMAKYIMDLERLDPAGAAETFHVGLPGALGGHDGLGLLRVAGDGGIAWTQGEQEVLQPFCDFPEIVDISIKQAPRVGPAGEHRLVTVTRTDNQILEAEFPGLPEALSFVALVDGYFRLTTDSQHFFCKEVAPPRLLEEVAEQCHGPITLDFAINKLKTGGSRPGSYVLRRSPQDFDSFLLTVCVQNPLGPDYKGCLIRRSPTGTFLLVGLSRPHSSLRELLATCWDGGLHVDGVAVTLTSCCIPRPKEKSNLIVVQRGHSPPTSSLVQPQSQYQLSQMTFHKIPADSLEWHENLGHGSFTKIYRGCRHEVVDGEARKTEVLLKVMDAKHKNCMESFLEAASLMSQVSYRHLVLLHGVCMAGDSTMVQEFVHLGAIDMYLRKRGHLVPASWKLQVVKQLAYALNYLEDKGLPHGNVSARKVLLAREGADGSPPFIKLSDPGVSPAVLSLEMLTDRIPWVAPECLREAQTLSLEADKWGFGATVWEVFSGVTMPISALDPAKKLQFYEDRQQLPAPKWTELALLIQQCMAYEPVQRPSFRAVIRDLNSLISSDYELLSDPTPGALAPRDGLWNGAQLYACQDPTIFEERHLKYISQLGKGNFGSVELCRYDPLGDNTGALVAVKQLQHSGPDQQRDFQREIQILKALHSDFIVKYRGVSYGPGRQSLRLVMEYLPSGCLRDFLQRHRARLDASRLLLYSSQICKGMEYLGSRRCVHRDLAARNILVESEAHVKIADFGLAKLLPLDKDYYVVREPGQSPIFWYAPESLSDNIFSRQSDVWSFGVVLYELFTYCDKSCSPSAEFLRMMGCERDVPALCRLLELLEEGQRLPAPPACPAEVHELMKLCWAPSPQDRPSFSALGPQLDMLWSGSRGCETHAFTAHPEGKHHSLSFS
Assay: JAK kinase assay (JAK3)
Assay type: biochemical
Details: Table 1
// class assignment uses IC50 with these ranges: low (below 5 nM), moderate (5 nM to below 20 nM), high (20 nM or more)

O=C(Nc1ccc2cncc(C(F)(F)F)c2c1)[C@@H]1CC1c1ccc(S(=O)(=O)Nc2ncccn2)cc1 (stereo partly shown) [Compound 9] : moderate
Cc1cncc2ccc(NC(=O)[C@@H]3C[C@H]3c3ccc(S(=O)(=O)NC4CCCNC4)cc3)cc12 (stereo partly shown) [Compound 13] : high
Cc1cncc2ccc(NC(=O)[C@@H]3C[C@H]3c3ccc(S(=O)(=O)Nc4ncc(C5CCNCC5)cn4)cc3)cc12 [Compound 1] : high
O=C(Nc1ccc2cncc(C(F)(F)F)c2c1)[C@@H]1C[C@H]1c1ccc(S(=O)(=O)Nc2ccccn2)cc1 [Compound 14] : moderate
Cc1cncc2ccc(NC(=O)[C@@H]3C[C@H]3c3ccc(S(=O)(=O)Nc4nccs4)cc3)cc12 [Compound 32] : low

Could you place N#Cc1cncc2ccc(NC(=O)[C@@H]3CC3c3ccc(S(=O)(=O)Nc4ccccn4)cc3)cc12 (stereo partly shown) [Compound 20] in its proper category? Many thanks. low

Could you place Cc1cncc2ccc(NC(=O)[C@@H]3C[C@H]3c3ccc(S(=O)(=O)Nc4cccnc4)cc3)cc12 [Compound 27] in its proper category? Many thanks. moderate

----------
Quick reference: log10(IC50) of the listed items.
Biological target: ROCK1 enzyme (Homo sapiens (Human))
Sequence (Q13464 whole entry, species assumed): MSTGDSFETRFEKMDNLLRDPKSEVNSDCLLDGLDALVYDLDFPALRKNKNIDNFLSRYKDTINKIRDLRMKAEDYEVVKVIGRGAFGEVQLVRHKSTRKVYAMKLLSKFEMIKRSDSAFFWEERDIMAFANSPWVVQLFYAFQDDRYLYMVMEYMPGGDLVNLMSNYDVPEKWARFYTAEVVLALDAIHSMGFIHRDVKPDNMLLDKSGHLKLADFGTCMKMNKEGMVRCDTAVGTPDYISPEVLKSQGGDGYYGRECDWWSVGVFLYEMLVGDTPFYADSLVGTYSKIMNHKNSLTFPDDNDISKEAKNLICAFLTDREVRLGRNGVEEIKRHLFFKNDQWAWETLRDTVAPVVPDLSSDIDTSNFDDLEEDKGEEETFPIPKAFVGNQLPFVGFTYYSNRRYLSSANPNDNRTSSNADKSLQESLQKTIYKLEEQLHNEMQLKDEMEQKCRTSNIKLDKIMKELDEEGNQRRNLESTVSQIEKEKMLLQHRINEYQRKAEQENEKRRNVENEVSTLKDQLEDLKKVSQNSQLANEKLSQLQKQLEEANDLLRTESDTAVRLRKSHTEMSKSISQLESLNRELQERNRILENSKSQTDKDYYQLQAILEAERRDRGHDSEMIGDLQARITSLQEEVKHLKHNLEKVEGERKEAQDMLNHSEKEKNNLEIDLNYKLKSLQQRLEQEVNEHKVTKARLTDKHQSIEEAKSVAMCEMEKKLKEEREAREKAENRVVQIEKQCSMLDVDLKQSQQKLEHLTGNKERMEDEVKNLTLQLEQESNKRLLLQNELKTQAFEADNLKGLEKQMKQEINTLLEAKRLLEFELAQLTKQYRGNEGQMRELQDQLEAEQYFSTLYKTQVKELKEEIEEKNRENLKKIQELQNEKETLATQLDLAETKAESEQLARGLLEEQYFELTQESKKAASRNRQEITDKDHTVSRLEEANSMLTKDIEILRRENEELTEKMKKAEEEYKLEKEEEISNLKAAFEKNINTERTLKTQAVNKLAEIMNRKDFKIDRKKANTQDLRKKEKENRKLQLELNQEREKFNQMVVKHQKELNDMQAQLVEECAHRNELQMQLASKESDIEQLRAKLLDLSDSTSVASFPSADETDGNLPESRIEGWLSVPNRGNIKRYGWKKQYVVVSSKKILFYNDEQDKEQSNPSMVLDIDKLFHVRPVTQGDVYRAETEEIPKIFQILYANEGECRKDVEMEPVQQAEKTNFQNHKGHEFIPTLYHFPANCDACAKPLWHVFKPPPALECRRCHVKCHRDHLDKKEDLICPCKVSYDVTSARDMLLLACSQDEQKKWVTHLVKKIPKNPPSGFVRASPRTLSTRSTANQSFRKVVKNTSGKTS
Test: ROCK kinase inhibition assay (ROCK1)
Format: biochemical
Settings: Table 1
Heads up, the numbers here are log10 of IC50 in nM units.

Please review the entries below; each comes with its answer.
O=C(Nc1ccc2cnccc2c1F)[C@@H]1C[C@H]1c1ccc(S(=O)(=O)Nc2cccnc2)cc1 : 1.63
Cc1cncc2ccc(NC(=O)[C@@H]3C[C@H]3c3ccc(S(=O)(=O)NC4CCCNC4)cc3)cc12 (stereo partly shown) : 1.26
CCc1cncc2ccc(NC(=O)[C@@H]3CC3c3ccc(S(=O)(=O)Nc4ccccn4)cc3)cc12 (stereo partly shown) : 1.64

Log: ROCK1 enzyme (Homo sapiens (Human)), compound `CCc1cncc2ccc(NC(=O)[C@@H]3C[C@H]3c3ccc(S(=O)(=O)Nc4ncccn4)cc3)cc12` , log10(IC50) = 3.04

Log: ROCK1 enzyme (Homo sapiens (Human)), compound O=C(Nc1ccc2cncc(Cl)c2c1)[C@@H]1CC1c1ccc(S(=O)(=O)Nc2ccc(F)cn2)cc1 (mixture of isomers) [Compound 16a] , log10(IC50) = 2.19

Log: ROCK1 enzyme (Homo sapiens (Human)), compound O=C(Nc1ccc2cnccc2c1)[C@@H]1CC1c1ccc(S(=O)(=O)Nc2ccccn2)c(F)c1 (stereo partly shown) , log10(IC50) = 0.81

Log: ROCK1 enzyme (Homo sapiens (Human)), compound O=C(Nc1ccc2cnccc2c1)[C@@H]1CC1c1cc(F)ccc1S(=O)(=O)Nc1ccccn1 (stereo partly shown) , log10(IC50) = 3.87

Log: ROCK1 enzyme (Homo sapiens (Human)), compound O=C(Nc1ccc2cncc(C(F)(F)F)c2c1)[C@@H]1CC1c1ccc(S(=O)(=O)Nc2ncccn2)cc1 (stereo partly shown) , log10(IC50) = 3.20

----------
Quick reference: IC50 of the listed items.
Biological target: JAK3 enzyme (Homo sapiens (Human), UniProt P52333)
Experiment: JAK kinase assay (JAK3)
Format: biochemical
Conditions: Table 1
Give just the number in nM; leave the unit off.

O=C(Nc1ccc2cncc(Cl)c2c1)[C@@H]1CC1c1ccc(S(=O)(=O)Nc2ccc(F)cn2)cc1 (mixture of isomers) [Compound 16a] : 4.8
O=C(Nc1ccc2cncc(Cl)c2c1)[C@@H]1CC1c1ccc(S(=O)(=O)Nc2cccnc2)cc1 (stereo partly drawn) : 18

Data point: Cc1cncc2ccc(NC(=O)[C@@H]3CC3c3ccc(S(=O)(=O)Nc4ncc(F)cn4)cc3)cc12 (stereo partly drawn) ; IC50 = 3.9

Data point: Cc1cncc2ccc(NC(=O)[C@@H]3C[C@H]3c3ccc(S(=O)(=O)NC4CCNC4)cc3)cc12 (stereo partly drawn) ; IC50 = 175

Data point: `Cc1cncc2ccc(NC(=O)[C@@H]3C[C@H]3c3ccc(S(=O)(=O)Nc4cncc(C5=CCNCC5)n4)cc3)cc12` ; IC50 = 135

Data point: O=C(Nc1ccc2cncc(Cl)c2c1)[C@@H]1CC1c1ccc(S(=O)(=O)Nc2ccc(F)cn2)cc1 (mixture of isomers) [Compound 16b] ; IC50 = 2.9

----------
Quick reference: IC50 of the listed items.
Target: UniProt Q13464
Test: ROCK kinase inhibition assay (ROCK1)
Format: biochemical
Details: Table 1
Give me the value, and tack the unit on after it.

Please review the entries below; each comes with its answer.
O=C(Nc1ccc2cncc(Cl)c2c1)[C@@H]1C[C@H]1c1ccc(S(=O)(=O)Nc2ncccn2)cc1 [Compound 6] : 128 nM
O=C(Nc1ccc2cncc(Cl)c2c1)[C@@H]1CC1c1ccc(S(=O)(=O)Nc2cccnc2)cc1 (some centres unmarked) [Compound 28] : 160 nM
O=C(Nc1ccc2cncc(Cl)c2c1)[C@@H]1CC1c1ccc(S(=O)(=O)Nc2ccc(F)cn2)cc1 (mixture of isomers) [Compound 16b] : 74 nM

Log: UniProt Q13464, compound Cc1cncc2ccc(NC(=O)[C@@H]3C[C@H]3c3ccc(S(=O)(=O)Nc4cncc(C5=CCNCC5)n4)cc3)cc12 [Compound 11] , IC50 = 153 nM

Log: UniProt Q13464, compound Cc1cncc2ccc(NC(=O)[C@@H]3C[C@H]3c3ccc(S(=O)(=O)Nc4nccs4)cc3)cc12 [Compound 32] , IC50 = 20 nM
